The entries below come with measured calcium oscillation score values attached.
target: Tau; assay: rat primary cortical neurons, FLIPR, 25 uM ASO
Bases are written 5' to 3'; sugars and linkages follow in the same order, as letters with counts (s phosphorothioate, o phosphodiester; PS: all linkages phosphorothioate). The collection does not say whether C is 5-methylated. l = locked nucleic acid (LNA); d = 2'-deoxy (DNA)

// below: answered sequences
{"columns": ["sequence text", "experimental system", "result"],
 "data": [
  ["GACTGCTCAGCTAAGACCCT (sugars l3 d14 l3, PS)", "Tau", "31.2 % of control"],
  ["GATTAACCAATTAACCGAAC (sugars l3 d14 l3, PS)", "Tau", "98.8 % of control"],
  ["AGAAATAAGTGGTAGT (sugars l4 d9 l3, PS)", "Tau", "89.3 % of control"]
]}

Please report calcium oscillation score for the following sequence: AGTTCCCACAATTCCTAC (sugars l2 d13 l3, PS)
50.4 % of control

Report measured calcium oscillation score; entry is ACCTCTTAGTCATCTTCC (sugars l2 d13 l3, PS)
74.4 % of control

Look up and state reported calcium oscillation score for CTTACTGATCATAATC (sugars l4 d8 l4, PS)
56.4 % of control

All values here come from the OligoGym collection.
